The reported numbers originate from the supplement of paper PMC10307832.

Test system: NCI-H23
Test: relative viability (nuclei count vs DMSO), 5 days (fraction); higher = more cells survive
Conditions: first compound 0.005 µM

molecule	relative viability
Nc1ccn([C@@H]2O[C@H](CO)[C@@H](O)[C@@H]2O)c(=O)n1 [Cytarabine] + CCNC(=O)c1noc(-c2cc(C(C)C)c(O)cc2O)c1-c1ccc(CN2CCOCC2)cc1 [Luminespib] (partner 0.01 µM)	0.179
Nc1ccn([C@@H]2O[C@H](CO)[C@@H](O)[C@@H]2O)c(=O)n1 [Cytarabine] + COc1cc2c(Oc3ccc(NC(=O)C4(C(=O)Nc5ccc(F)cc5)CC4)cc3F)ccnc2cc1OCCCN1CCOCC1 [Foretinib] (partner 0.25 µM)	0.784
Nc1ccn([C@@H]2O[C@H](CO)[C@@H](O)[C@@H]2O)c(=O)n1 [Cytarabine] + CS(=O)(=O)N1CCN(Cc2cc3nc(-c4cccc5[nH]ncc45)nc(N4CCOCC4)c3s2)CC1 [Pictilisib] (partner 1 µM)	0.527
COc1cc2nccc(Oc3ccc(NC(=O)Nc4cc(C)on4)c(Cl)c3)c2cc1OC [Tivozanib] + Cc1cc(Nc2cc(N3CCN(C)CC3)nc(Sc3ccc(NC(=O)C4CC4)cc3)n2)n[nH]1 [Tozasertib] (partner 0.1 µM)	0.324
Nc1ccn([C@@H]2O[C@H](CO)[C@@H](O)[C@@H]2O)c(=O)n1 [Cytarabine] + Cc1nc(NC(=O)N2CCC[C@H]2C(N)=O)sc1-c1ccnc(C(C)(C)C(F)(F)F)c1 [Alpelisib] (partner 2 µM)	0.575

----------
System: COR-L 105
Assay: relative viability (nuclei count vs DMSO), 5 days (fraction); higher = more cells survive
Conditions: first compound 2.53 µM
relative viability by entry:

molecule	relative viability
Cc1cnc(-c2cnc(NCCNc3ccc(C#N)cn3)nc2-c2ccc(Cl)cc2Cl)[nH]1 + COc1cc2c(Oc3ccc(NC(=O)C4(C(=O)Nc5ccc(F)cc5)CC4)cc3F)ccnc2cc1OCCCN1CCOCC1 [Foretinib] (partner 0.25 µM)	0.868
O=c1[nH]c2ccccc2n1C1CCN(CCCC(c2ccc(F)cc2)c2ccc(F)cc2)CC1 [Pimozide] + O=C(CCCCCCC(=O)Nc1ccccc1)NO [Vorinostat] (partner 1 µM)	0.833
O=c1[nH]c2ccccc2n1C1CCN(CCCC(c2ccc(F)cc2)c2ccc(F)cc2)CC1 [Pimozide] + C[C@@H](Oc1cc(-c2cnn(C3CCNCC3)c2)cnc1N)c1c(Cl)ccc(F)c1Cl [Crizotinib] (partner 1 µM)	0.645
O=c1[nH]c2ccccc2n1C1CCN(CCCC(c2ccc(F)cc2)c2ccc(F)cc2)CC1 [Pimozide] + C[C@]1(O)C[C@@H](c2nc(-c3ccc4ccc(-c5ccccc5)nc4c3)c3c(N)nccn32)C1 [Linsitinib] (partner 1 µM)	0.844
Cc1cnc(-c2cnc(NCCNc3ccc(C#N)cn3)nc2-c2ccc(Cl)cc2Cl)[nH]1 + COc1cccc2cc(-c3nc([C@H]4CC[C@H](C(=O)O)CC4)n4ncnc(N)c34)[nH]c12 [OSI-027] (partner 0.5 µM)	0.379
O=c1[nH]c2ccccc2n1C1CCN(CCCC(c2ccc(F)cc2)c2ccc(F)cc2)CC1 [Pimozide] + Nc1ncn([C@H]2C[C@H](O)[C@@H](CO)O2)c(=O)n1 [Decitabine] (partner 2 µM)	0.659
O=c1[nH]c2ccccc2n1C1CCN(CCCC(c2ccc(F)cc2)c2ccc(F)cc2)CC1 [Pimozide] + CC1(C)CCC(c2ccc(Cl)cc2)=C(CN2CCN(c3ccc(C(=O)NS(=O)(=O)c4ccc(N[C@H](CCN5CCOCC5)CSc5ccccc5)c(S(=O)(=O)C(F)(F)F)c4)cc3)CC2)C1 [Navitoclax] (partner 0.5 µM)	0.816
Cc1cnc(-c2cnc(NCCNc3ccc(C#N)cn3)nc2-c2ccc(Cl)cc2Cl)[nH]1 + CC1(C)CCC(c2ccc(Cl)cc2)=C(CN2CCN(c3ccc(C(=O)NS(=O)(=O)c4ccc(N[C@H](CCN5CCOCC5)CSc5ccccc5)c(S(=O)(=O)C(F)(F)F)c4)cc3)CC2)C1 [Navitoclax] (partner 0.5 µM)	0.558
Cc1cnc(-c2cnc(NCCNc3ccc(C#N)cn3)nc2-c2ccc(Cl)cc2Cl)[nH]1 + CCNC(=O)c1noc(-c2cc(C(C)C)c(O)cc2O)c1-c1ccc(CN2CCOCC2)cc1 [Luminespib] (partner 0.01 µM)	0.654
Cc1cnc(-c2cnc(NCCNc3ccc(C#N)cn3)nc2-c2ccc(Cl)cc2Cl)[nH]1 + O=C(CCCCCCC(=O)Nc1ccccc1)NO [Vorinostat] (partner 1 µM)	0.663
Cc1cnc(-c2cnc(NCCNc3ccc(C#N)cn3)nc2-c2ccc(Cl)cc2Cl)[nH]1 + CC(=O)c1c(C)c2cnc(Nc3ccc(N4CCNCC4)cn3)nc2n(C2CCCC2)c1=O [Palbociclib] (partner 0.5 µM)	0.404
O=c1[nH]c2ccccc2n1C1CCN(CCCC(c2ccc(F)cc2)c2ccc(F)cc2)CC1 [Pimozide] + COc1cc2c(Oc3ccc(NC(=O)C4(C(=O)Nc5ccc(F)cc5)CC4)cc3F)ccnc2cc1OCCCN1CCOCC1 [Foretinib] (partner 0.25 µM)	0.876
O=c1[nH]c2ccccc2n1C1CCN(CCCC(c2ccc(F)cc2)c2ccc(F)cc2)CC1 [Pimozide] + CCNC(=O)c1noc(-c2cc(C(C)C)c(O)cc2O)c1-c1ccc(CN2CCOCC2)cc1 [Luminespib] (partner 0.01 µM)	0.879
O=c1[nH]c2ccccc2n1C1CCN(CCCC(c2ccc(F)cc2)c2ccc(F)cc2)CC1 [Pimozide] + Nc1nc2[nH]cc(CCc3ccc(C(=O)N[C@@H](CCC(=O)O)C(=O)O)cc3)c2c(=O)[nH]1 [Pemetrexed] (partner 0.2 µM)	1.2
